- System: Mus musculus
- protocol.description: In vivo inhibitory activity by mouse air-pouch assay at dose 2 MPK was determined.
- Format: functional
# label = 1 if inhibition in vivo at 2 mg/kg >= 90% else -1

Example cases with answers are listed next.
- record.smiles: "CS(=O)(=O)c1ccc(-c2[nH]c(C(F)(F)F)nc2-c2ccc(Cl)cc2)cc1"
  experimental.system: "Mus musculus"
  label.class: -1
- record.smiles: "CS(=O)(=O)c1ccc(-c2[nH]c(C(F)(F)F)nc2-c2cccnc2)cc1"
  experimental.system: "Mus musculus"
  label.class: -1
- record.smiles: "CS(=O)(=O)c1ccc(-c2[nH]c(C(F)(F)F)nc2-c2ccc(F)cc2F)cc1"
  experimental.system: "Mus musculus"
  label.class: 1
- record.smiles: "Cc1cccc(-c2[nH]c(C(F)(F)F)nc2-c2ccc(S(C)(=O)=O)cc2)c1"
  experimental.system: "Mus musculus"
  label.class: -1
- record.smiles: "Cc1c(F)cccc1-c1[nH]c(C(F)(F)F)nc1-c1ccc(S(C)(=O)=O)cc1"
  experimental.system: "Mus musculus"
  label.class: 1
- record.smiles: "Cc1ccc(-c2[nH]c(C(F)(F)F)nc2-c2ccc(S(C)(=O)=O)cc2)cc1Cl"
  experimental.system: "Mus musculus"
  label.class: -1
- record.smiles: "CS(=O)(=O)c1ccc(-c2[nH]c(C(F)(F)F)nc2-c2ccc(Cl)c(Cl)c2)cc1"
  experimental.system: "Mus musculus"
  label.class: -1

Next:
# input Entry `CS(=O)(=O)c1ccc(-c2[nH]c(C(F)(F)F)nc2-c2ccccc2Cl)cc1` : is its inhibition in vivo at 2 mg/kg no less than 90%?
# output -1

----------
For each entry below, report its inhibition in vivo at 2 mg/kg value.
- System: Mus musculus
- protocol.description: In vivo inhibitory activity by mouse air-pouch assay at dose 2 MPK was determined.
- Format: functional
Give bare numbers, in %.

- record.smiles: "CS(=O)(=O)c1ccc(-c2[nH]c(C(F)(F)F)nc2-c2cccs2)cc1"
  inhibition in vivo at 2 mg/kg (%): 79
- record.smiles: "CS(=O)(=O)c1ccc(-c2[nH]c(C(F)(F)F)nc2-c2cccc(Cl)c2)cc1"
  inhibition in vivo at 2 mg/kg (%): 98
- record.smiles: "CS(=O)(=O)c1ccc(-c2[nH]c(C(F)(F)F)nc2NS(=O)(=O)c2ccc(F)cc2)cc1"
  inhibition in vivo at 2 mg/kg (%): 33
- record.smiles: "CS(=O)(=O)c1ccc(-c2[nH]c(C(F)(F)F)nc2-c2ccc(F)c(F)c2)cc1"
  inhibition in vivo at 2 mg/kg (%): 68
- record.smiles: "CS(=O)(=O)c1ccc(-c2[nH]c(C(F)(F)F)nc2-c2ccc(F)cc2)cc1"
  inhibition in vivo at 2 mg/kg (%): 99

# input for lookup
# input Form field: reported inhibition in vivo at 2 mg/kg of `CS(=O)(=O)c1ccc(-c2[nH]c(C(F)(F)F)nc2-c2ccsc2)cc1`
# output 0
